assay: glucagon-like peptide 1 release enhancers, primary assay, NCI-H716 cell line, NPC library (AID 1117341); conditions: NCI-H716 cells, at 10 µM, hits give high values
Reported Endpoint: GLP1 secretion stimulation (%)
Give bare numbers, in %.

Worked cases, GLP1 secretion stimulation given:
Compound: Clc1ccc2c(c1)Nc1ccccc1S2
GLP1 secretion stimulation / %: -3.1

Compound: CC(C)(C)NCC(O)COc1ccc(NC(=O)NC2CCCCC2)cc1 (stereo not given)
GLP1 secretion stimulation / %: 2

Compound: COc1ccc([C@@H]2Sc3ccccc3N(CCN(C)C)C(=O)[C@@H]2OC(C)=O)cc1
GLP1 secretion stimulation / %: 2.5

Compound: O=C(O)CCC(=O)C(=O)O
GLP1 secretion stimulation / %: -1.6

Compound: COc1ccc(/C=C/C(=O)c2ccc(OC)cc2OC)cc1
GLP1 secretion stimulation / %: -6.1

Below is a list of compounds. For each, state its recorded GLP1 secretion stimulation.
1. CCn1cc(C(=O)O)c(=O)c2cc(F)c(N3CCNCC3)cc21
2. OC(C#CCN1CCCC1)(c1ccccc1)c1ccccc1
3. Nc1ccc(O)cc1
4. COC(=O)c1nc(Cl)c(Cl)nc1N
5. CCCCCCCCCC(=O)O
6. N#C/C(=C1/SC[C@@H](c2ccc(Cl)cc2Cl)S1)n1ccnc1
7. CC(O)COc1ccccc1 (stereo not given)

1: 4.3; 2: 5.5; 3: -3.8; 4: 4.1; 5: 1.6; 6: -1.8; 7: 0.5

Give GLP1 secretion stimulation for each of the items listed below.
1. COc1cc2c(cc1OC)C(=O)CC2
2. CCCCCCCCCCCC(=O)OCC(O)CO (stereo not given)
3. COc1ccc(S(=O)(=O)N2c3ccc(Cl)cc3[C@@](O)(c3ccccc3Cl)[C@H]2C(=O)N2CCC[C@@H]2C(N)=O)cc1OC

1. 3.1
2. -3.3
3. -0.7

* * *

test: HCT116 colon cancer cell growth inhibition, primary screen, CellTiter-Glo luminescence, NPC library (AID 1117342); conditions: at 20 µM (top of the series)
Reported Endpoint: inhibition of viability (%)
One number for each entry, in %.

Before answering, review these 4 worked examples.
Mol: COC1=C(OC)C(=O)C(CC=C(C)CCC=C(C)CCC=C(C)CCC=C(C)CCC=C(C)CCC=C(C)CCC=C(C)CCC=C(C)CCC=C(C)CCC=C(C)C)=C(C)C1=O
Unit Spec: %
inhibition of viability: 4.6
--
Mol: c1ccc([C@H]2CN3CCSC3=N2)cc1
Unit Spec: %
inhibition of viability: -2.5
--
Mol: O=C(O)Cc1ccccc1Oc1ccc(Cl)cc1Cl
Unit Spec: %
inhibition of viability: -0.8
--
Mol: O=c1[nH]sc2cc(Cl)ccc12
Unit Spec: %
inhibition of viability: 20.5

# input for lookup
Supply reported inhibition of viability belonging to this compound: O=C(Nc1ccc(Cl)cc1)Nc1ccc(Cl)c(C(F)(F)F)c1
99.3

* * *

Kindly state fluorescence ratio for each of the entries shown.
assay: Cy5 fluorescence interference with SSB-bound oligo, artefact control for HCV NS3 helicase inhibitor project, biochemical, NIH Clinical Collection, E. coli SSB (AID 743268)
Numbers only.

Answered examples (3):
Compound: CC[C@H](C)C(=O)O[C@H]1C[C@H](O)C=C2C=C[C@H](C)[C@H](CC[C@@H](O)C[C@@H](O)CC(=O)O)[C@H]21
Result Number: 1.01

Compound: NS(=O)(=O)c1cc2c(cc1C(F)(F)F)NCNS2(=O)=O
Result Number: 1.02

Compound: Cc1onc(-c2ccccc2)c1-c1ccc(S(N)(=O)=O)cc1
Result Number: 1

Hello, I would appreciate it if you could give fluorescence ratio for each entry below.
1. O=C(O)CCCc1ccccc1
2. Nc1nc(N)c2nc(-c3ccccc3)c(N)nc2n1

1. 0.99
2. 1.01

Values were extracted from PubChem BioAssay.
